- system.tested: Protein kinase C alpha type (Homo sapiens)
metric.name: pIC50
In simple prose, pIC50 is minus the logarithm base ten of a concentration in moles per litre.

Using the record for N#Cc1ccc(N2CC[C@@H](Nc3c(C(N)=O)cnc4[nH]ccc34)[C@@H](F)C2)nc1 , report its pIC50.
6.89

====

- procedure.details: Oral bioavailability in beagle dog at 3 mg/kg by LC/MS/MS method
- Format: ADME, organism-based, Canis lupus familiaris
- assay.setup: in vivo
metric.name: bioavailability (%)
Report only the number, with the unit % understood.

Using the record for N#Cc1ccc(N2CC[C@@H](Nc3c(C(N)=O)cnc4[nH]ccc34)[C@@H](F)C2)nc1 , report its bioavailability.
49.1

====

- system.tested: Interleukin-1 receptor-associated kinase 4 (Homo sapiens, UniProt Q9NWZ3)
- Sequence (Q9NWZ3 whole entry): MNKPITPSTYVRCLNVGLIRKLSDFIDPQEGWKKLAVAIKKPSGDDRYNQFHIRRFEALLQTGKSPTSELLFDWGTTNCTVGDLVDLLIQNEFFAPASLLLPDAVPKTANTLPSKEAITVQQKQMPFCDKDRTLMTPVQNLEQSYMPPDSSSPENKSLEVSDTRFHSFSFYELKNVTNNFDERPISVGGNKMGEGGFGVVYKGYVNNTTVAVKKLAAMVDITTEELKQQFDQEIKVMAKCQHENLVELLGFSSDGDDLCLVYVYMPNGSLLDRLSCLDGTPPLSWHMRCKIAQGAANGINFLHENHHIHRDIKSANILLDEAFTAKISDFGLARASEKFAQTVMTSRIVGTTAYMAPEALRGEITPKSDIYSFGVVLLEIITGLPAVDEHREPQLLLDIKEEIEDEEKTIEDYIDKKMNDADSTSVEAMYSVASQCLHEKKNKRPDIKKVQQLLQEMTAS
pIC50: −log10 of the molar value.
metric.name: pIC50

Using the record for N#Cc1ccc(N2CC[C@@H](Nc3c(C(N)=O)cnc4[nH]ccc34)[C@@H](F)C2)nc1 , report its pIC50.
< 6.00

====

// values below are pIC50; system is Tyrosine-protein kinase JAK2 (Homo sapiens)
Sequence (O60674 whole entry): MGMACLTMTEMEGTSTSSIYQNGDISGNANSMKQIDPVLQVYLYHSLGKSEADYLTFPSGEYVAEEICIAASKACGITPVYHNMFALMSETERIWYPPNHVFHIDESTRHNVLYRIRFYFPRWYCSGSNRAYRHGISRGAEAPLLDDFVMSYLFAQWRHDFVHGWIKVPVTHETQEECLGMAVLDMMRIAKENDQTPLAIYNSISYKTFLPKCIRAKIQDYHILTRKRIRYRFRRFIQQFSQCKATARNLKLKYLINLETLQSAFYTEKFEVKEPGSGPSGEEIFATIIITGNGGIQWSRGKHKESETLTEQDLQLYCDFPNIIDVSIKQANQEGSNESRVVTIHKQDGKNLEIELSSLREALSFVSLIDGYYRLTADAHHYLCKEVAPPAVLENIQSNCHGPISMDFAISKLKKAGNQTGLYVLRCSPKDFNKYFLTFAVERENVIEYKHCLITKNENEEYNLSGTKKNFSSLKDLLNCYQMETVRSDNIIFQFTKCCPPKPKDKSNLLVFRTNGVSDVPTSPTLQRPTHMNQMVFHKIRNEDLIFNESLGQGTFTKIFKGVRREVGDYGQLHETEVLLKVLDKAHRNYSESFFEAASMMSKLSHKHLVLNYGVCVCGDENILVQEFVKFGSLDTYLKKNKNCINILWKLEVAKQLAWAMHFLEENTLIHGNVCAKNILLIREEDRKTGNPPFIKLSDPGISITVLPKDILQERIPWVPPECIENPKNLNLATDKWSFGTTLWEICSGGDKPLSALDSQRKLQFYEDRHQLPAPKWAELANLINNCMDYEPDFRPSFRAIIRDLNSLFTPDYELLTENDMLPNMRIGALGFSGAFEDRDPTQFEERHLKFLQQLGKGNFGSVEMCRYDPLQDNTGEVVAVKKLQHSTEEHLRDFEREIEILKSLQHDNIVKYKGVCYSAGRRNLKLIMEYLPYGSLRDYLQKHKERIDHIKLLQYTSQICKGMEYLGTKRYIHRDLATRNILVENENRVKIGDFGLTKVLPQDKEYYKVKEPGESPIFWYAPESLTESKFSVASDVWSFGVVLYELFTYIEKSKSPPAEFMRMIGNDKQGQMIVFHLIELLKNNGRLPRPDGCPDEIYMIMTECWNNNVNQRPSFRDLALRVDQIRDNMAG
In simple prose, pIC50 is minus the logarithm base ten of a concentration in moles per litre.

Below, 5 compounds whose answers are already recorded.
>>> print(df.to_string())
                               smiles_entry  value_measured
0  NC(=O)c1cnc2[nH]ccc2c1N[C@@H]1CCCN(Cc2ccccc2)C1            6.37
1  C[C@@H]1CCCC[C@@H]1Nc1c(C(N)=O)cnc2[nH]ccc12            7.52
2  NC(=O)c1cnc2[nH]ccc2c1NC1CCN(c2ccc(CO)cn2)CC1            7.00
3  NC(=O)c1cnc2[nH]ccc2c1N[C@H]1CCCN(Cc2ccccc2)C1            6.19
4  NC(=O)c1cnc2[nH]ccc2c1NC1CCN(c2ccc(C(F)(F)F)cn2)CC1            6.43

Using the record for N#Cc1ccc(N2CC[C@@H](Nc3c(C(N)=O)cnc4[nH]ccc34)[C@@H](F)C2)nc1 , report its pIC50.
8.49

====

- system.tested: Bone morphogenetic protein receptor type-1A (Homo sapiens)
- Sequence (P36894 whole entry): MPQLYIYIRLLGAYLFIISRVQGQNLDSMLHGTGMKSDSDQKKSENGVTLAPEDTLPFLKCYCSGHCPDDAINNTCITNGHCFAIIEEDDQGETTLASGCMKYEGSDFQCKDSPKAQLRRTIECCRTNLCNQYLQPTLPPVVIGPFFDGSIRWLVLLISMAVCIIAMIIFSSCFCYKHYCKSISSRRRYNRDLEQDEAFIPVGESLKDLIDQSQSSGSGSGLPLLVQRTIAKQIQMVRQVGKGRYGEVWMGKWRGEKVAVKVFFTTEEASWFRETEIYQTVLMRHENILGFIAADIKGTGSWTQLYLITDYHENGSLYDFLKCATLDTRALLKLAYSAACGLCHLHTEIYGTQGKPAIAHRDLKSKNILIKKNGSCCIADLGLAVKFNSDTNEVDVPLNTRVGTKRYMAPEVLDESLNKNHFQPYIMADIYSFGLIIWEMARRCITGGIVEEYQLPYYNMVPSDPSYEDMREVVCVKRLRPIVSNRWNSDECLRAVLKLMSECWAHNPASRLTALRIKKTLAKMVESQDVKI
pIC50: −log10 of the molar value.
metric.name: pIC50

Using the record for N#Cc1ccc(N2CC[C@@H](Nc3c(C(N)=O)cnc4[nH]ccc34)[C@@H](F)C2)nc1 , report its pIC50.
< 6.00

====

- system.tested: RAF proto-oncogene serine/threonine-protein kinase (Homo sapiens, UniProt P04049)
pIC50: −log10 of the molar value.
metric.name: pIC50

Using the record for N#Cc1ccc(N2CC[C@@H](Nc3c(C(N)=O)cnc4[nH]ccc34)[C@@H](F)C2)nc1 , report its pIC50.
< 6.00

====

- procedure.details: AUC (0 to 24 hrs) in beagle dog at 1 mg/kg, iv by LC/MS/MS method
- Type: ADME, organism-based, Canis lupus familiaris
- Design: dose 1 mg/kg, time < 24 hr, route intravenous
- assay.setup: in vivo
metric.name: AUC(0-t) at 24 h (ng·h/mL)
Report only the number, with the unit ng·h/mL understood.

Using the record for N#Cc1ccc(N2CC[C@@H](Nc3c(C(N)=O)cnc4[nH]ccc34)[C@@H](F)C2)nc1 , report its AUC(0-t) at 24 h.
5650

====

- system.tested: Ephrin type-A receptor 2 (Homo sapiens)
- Sequence (P29317 whole entry): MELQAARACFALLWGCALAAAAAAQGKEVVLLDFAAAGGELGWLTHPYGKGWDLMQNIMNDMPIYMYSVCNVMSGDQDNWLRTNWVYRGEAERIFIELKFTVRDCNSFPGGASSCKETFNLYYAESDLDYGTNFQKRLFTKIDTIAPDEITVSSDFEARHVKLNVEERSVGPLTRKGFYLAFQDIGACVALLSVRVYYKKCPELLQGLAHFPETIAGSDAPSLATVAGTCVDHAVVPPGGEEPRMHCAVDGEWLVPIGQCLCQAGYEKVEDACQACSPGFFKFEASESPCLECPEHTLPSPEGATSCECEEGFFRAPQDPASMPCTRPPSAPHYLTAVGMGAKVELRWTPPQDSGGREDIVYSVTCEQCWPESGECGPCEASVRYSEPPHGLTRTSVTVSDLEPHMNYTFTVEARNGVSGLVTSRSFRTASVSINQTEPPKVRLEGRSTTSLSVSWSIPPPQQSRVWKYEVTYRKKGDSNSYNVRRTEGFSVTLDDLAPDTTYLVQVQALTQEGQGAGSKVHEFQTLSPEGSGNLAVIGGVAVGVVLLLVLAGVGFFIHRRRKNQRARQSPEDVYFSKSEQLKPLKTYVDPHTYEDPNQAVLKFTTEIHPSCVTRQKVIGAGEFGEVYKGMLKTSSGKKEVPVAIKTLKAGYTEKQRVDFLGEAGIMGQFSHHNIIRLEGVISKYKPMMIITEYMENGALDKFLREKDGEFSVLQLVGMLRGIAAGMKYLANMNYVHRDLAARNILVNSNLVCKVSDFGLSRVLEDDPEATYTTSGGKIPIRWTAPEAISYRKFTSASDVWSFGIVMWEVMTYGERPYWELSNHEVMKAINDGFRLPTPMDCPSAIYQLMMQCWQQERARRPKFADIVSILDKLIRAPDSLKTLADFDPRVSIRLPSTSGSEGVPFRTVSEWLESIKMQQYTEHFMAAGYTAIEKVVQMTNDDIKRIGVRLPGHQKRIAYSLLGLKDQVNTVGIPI
pIC50: −log10 of the molar value.
metric.name: pIC50

Using the record for N#Cc1ccc(N2CC[C@@H](Nc3c(C(N)=O)cnc4[nH]ccc34)[C@@H](F)C2)nc1 , report its pIC50.
< 6.00

====

- system.tested: Dual specificity mitogen-activated protein kinase kinase 1 (Homo sapiens)
- Sequence (Q02750 whole entry): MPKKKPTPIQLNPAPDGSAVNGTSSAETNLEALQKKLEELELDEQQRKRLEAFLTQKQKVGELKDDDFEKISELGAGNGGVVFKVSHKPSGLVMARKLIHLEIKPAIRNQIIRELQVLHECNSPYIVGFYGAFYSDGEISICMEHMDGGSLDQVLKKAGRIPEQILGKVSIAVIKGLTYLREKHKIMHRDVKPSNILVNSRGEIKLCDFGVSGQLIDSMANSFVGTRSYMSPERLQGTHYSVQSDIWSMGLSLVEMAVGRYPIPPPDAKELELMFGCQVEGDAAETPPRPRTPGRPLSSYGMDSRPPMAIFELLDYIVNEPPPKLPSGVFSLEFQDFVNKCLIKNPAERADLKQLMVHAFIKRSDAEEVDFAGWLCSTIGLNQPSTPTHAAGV
- procedure.details: Inhibition of MEK1 (unknown origin)
pIC50: −log10 of the molar value.
metric.name: pIC50

Using the record for N#Cc1ccc(N2CC[C@@H](Nc3c(C(N)=O)cnc4[nH]ccc34)[C@@H](F)C2)nc1 , report its pIC50.
< 6.00

====

- procedure.details: Total clearance in cynomolgus monkey at 1 mg/kg, iv by LC/MS/MS method
- Format: ADME, organism-based, Macaca fascicularis
- assay.setup: in vivo
metric.name: clearance (mL/min/kg)
Report only the number, with the unit mL/min/kg understood.

Using the record for N#Cc1ccc(N2CC[C@@H](Nc3c(C(N)=O)cnc4[nH]ccc34)[C@@H](F)C2)nc1 , report its clearance.
3.8

====

- procedure.details: Tmax in beagle dog at 3 mg/kg, po by LC/MS/MS method
- Type: ADME, organism-based, Canis lupus familiaris
- assay.setup: in vivo
metric.name: Tmax

Using the record for N#Cc1ccc(N2CC[C@@H](Nc3c(C(N)=O)cnc4[nH]ccc34)[C@@H](F)C2)nc1 , report its Tmax.
2.7 h

====

- procedure.details: Total clearance in Sprague-Dawley rat at 1 mg/kg, iv by LC/MS/MS method
- Type: ADME, organism-based
- assay.setup: in vivo
metric.name: clearance (mL/min/kg)
Report only the number, with the unit mL/min/kg understood.

Using the record for N#Cc1ccc(N2CC[C@@H](Nc3c(C(N)=O)cnc4[nH]ccc34)[C@@H](F)C2)nc1 , report its clearance.
5.3

====

- system.tested: Protein kinase C theta type (Homo sapiens, UniProt Q04759)
- Sequence (Q04759 whole entry): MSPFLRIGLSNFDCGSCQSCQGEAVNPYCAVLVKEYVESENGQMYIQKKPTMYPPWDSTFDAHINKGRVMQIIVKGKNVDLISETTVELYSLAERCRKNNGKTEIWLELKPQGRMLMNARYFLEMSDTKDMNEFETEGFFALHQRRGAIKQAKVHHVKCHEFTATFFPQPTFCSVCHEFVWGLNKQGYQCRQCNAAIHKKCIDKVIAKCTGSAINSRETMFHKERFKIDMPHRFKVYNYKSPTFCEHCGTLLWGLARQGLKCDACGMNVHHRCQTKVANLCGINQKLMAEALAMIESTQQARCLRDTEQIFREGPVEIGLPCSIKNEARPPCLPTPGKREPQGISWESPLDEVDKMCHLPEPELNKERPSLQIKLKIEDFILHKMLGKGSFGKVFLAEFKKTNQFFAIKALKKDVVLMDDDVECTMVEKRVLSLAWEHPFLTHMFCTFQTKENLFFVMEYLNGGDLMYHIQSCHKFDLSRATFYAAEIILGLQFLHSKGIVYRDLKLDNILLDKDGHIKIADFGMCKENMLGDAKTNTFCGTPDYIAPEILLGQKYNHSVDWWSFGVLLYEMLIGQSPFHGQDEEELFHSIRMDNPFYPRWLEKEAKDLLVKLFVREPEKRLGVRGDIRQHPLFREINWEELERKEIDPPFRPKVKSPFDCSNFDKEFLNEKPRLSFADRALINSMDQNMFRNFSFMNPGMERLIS
metric.name: pIC50
In simple prose, pIC50 is minus the logarithm base ten of a concentration in moles per litre.

Using the record for N#Cc1ccc(N2CC[C@@H](Nc3c(C(N)=O)cnc4[nH]ccc34)[C@@H](F)C2)nc1 , report its pIC50.
6.49

====

- procedure.details: Half life in Sprague-Dawley rat at 1 mg/kg, iv by LC/MS/MS method
- Format: ADME, organism-based
- assay.setup: in vivo
metric.name: half-life (h)
Report only the number, with the unit h understood.

Using the record for N#Cc1ccc(N2CC[C@@H](Nc3c(C(N)=O)cnc4[nH]ccc34)[C@@H](F)C2)nc1 , report its half-life.
3

====

- system.tested: Focal adhesion kinase 1 (Homo sapiens, UniProt Q05397)
metric.name: IC50

Using the record for N#Cc1ccc(N2CC[C@@H](Nc3c(C(N)=O)cnc4[nH]ccc34)[C@@H](F)C2)nc1 , report its IC50.
> 1000 nM

====

- procedure.details: Oral bioavailability in Sprague-Dawley rat at 3 mg/kg by LC/MS/MS method
- Format: ADME, organism-based
- assay.setup: in vivo
metric.name: bioavailability
In your response, put the unit directly after the numeric value.

Using the record for N#Cc1ccc(N2CC[C@@H](Nc3c(C(N)=O)cnc4[nH]ccc34)[C@@H](F)C2)nc1 , report its bioavailability.
70.7%

====

- procedure.details: AUC (0 to 24 hrs) in Sprague-Dawley rat at 3 mg/kg, po by LC/MS/MS method
- Assay type: ADME, organism-based
- Set-up: dose 3 mg/kg, time < 24 hr, route oral
- assay.setup: in vivo
metric.name: AUC(0-t) at 24 h (ng·h/mL)
Report only the number, with the unit ng·h/mL understood.

Using the record for N#Cc1ccc(N2CC[C@@H](Nc3c(C(N)=O)cnc4[nH]ccc34)[C@@H](F)C2)nc1 , report its AUC(0-t) at 24 h.
6780

====

- procedure.details: Tmax in cynomolgus monkey at 3 mg/kg, po by LC/MS/MS method
- Type: ADME, organism-based, Macaca fascicularis
- assay.setup: in vivo
metric.name: Tmax (h)
Report only the number, with the unit h understood.

Using the record for N#Cc1ccc(N2CC[C@@H](Nc3c(C(N)=O)cnc4[nH]ccc34)[C@@H](F)C2)nc1 , report its Tmax.
5.3

====

- system.tested: Casein kinase I isoform delta (Homo sapiens, UniProt P48730)
- Sequence (P48730 whole entry, canonical isoform): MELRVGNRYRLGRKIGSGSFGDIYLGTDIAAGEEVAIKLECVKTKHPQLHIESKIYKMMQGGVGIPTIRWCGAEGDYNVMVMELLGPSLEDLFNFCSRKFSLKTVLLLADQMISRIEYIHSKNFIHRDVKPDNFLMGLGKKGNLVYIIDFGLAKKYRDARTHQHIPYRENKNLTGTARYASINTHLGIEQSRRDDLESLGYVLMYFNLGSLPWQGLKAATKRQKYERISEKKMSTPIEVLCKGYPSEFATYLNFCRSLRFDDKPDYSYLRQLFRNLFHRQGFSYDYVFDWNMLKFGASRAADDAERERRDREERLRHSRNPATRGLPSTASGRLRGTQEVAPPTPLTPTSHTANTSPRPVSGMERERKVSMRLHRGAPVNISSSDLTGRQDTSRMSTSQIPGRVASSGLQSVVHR
- procedure.details: Inhibition of CK1delta (unknown origin)
metric.name: IC50

Using the record for N#Cc1ccc(N2CC[C@@H](Nc3c(C(N)=O)cnc4[nH]ccc34)[C@@H](F)C2)nc1 , report its IC50.
> 1000 nM

====

- system.tested: Tyrosine-protein kinase BTK (Homo sapiens)
- Sequence (Q06187 whole entry): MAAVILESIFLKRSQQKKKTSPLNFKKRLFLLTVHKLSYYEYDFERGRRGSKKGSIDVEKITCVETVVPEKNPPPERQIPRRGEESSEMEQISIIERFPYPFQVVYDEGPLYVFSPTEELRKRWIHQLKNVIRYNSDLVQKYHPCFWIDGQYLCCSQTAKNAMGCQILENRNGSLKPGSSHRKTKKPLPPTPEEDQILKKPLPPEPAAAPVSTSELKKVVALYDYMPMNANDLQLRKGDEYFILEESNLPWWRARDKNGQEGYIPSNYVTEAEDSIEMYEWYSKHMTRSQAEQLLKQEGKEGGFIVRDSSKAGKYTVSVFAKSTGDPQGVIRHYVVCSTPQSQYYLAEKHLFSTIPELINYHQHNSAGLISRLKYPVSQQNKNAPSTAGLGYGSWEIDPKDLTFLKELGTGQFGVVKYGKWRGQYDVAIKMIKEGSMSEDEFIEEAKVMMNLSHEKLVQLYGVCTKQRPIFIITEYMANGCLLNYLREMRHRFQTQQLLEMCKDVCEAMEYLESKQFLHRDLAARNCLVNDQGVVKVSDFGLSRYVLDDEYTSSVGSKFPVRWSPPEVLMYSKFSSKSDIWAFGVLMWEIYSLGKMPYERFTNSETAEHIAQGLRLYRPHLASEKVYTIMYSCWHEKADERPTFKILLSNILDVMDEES
metric.name: IC50

Using the record for N#Cc1ccc(N2CC[C@@H](Nc3c(C(N)=O)cnc4[nH]ccc34)[C@@H](F)C2)nc1 , report its IC50.
> 1000 nM
